- System: Hepatitis C virus
- experiment: Antiviral activity against Hepatitis C virus subtype 2a infected in human Huh7.5 cells assessed as inhibition of viral RNA replication at 100 uM after 42 hrs by […] assay relative to control
- Assay type: functional, Hepacivirus hominis
- setup_conditions: genotype 2a, Huh-7, 42 h
readout_name: inhibition at 100 µM (%)
Express your answer in %, writing the number without its unit.

Here's what some known entries look like.
smiles_entry | scale_unit | inhibition at 100 µM
O=C1CS/C(=N/c2nnc(-c3ccc(Cl)cc3)s2)N1 | % | 89.8
O=C1N/C(=N\c2nnc(-c3ccc(Cl)cc3)s2)S/C1=C\c1cccc(F)c1 | % | 95.6
Nc1nnc(-c2ccc(F)cc2)s1 | % | 52.4
O=C1N/C(=N\c2nnc(-c3ccc(Cl)cc3)s2)S/C1=C\c1ccc(F)cc1 | % | 94.9
O=C1N/C(=N\c2nnc(-c3ccc(F)cc3)s2)S/C1=C\c1c(F)cccc1Cl | % | 98.5

Turning now to a further record.
Challenge: State its inhibition at 100 µM on Hepatitis C virus: O=C1N/C(=N\c2nnc(-c3ccc(Cl)cc3)s2)S/C1=C\c1c(Cl)cccc1Cl
Response given: 98.1
